- TARGET UNDER TEST: APOL1 G2 (Homo sapiens, UniProt O14791, DEL388-389)
- Construct: expressed in transfected cells; host or cells: HEK293 T-REx clonal line stably expressing GCaMP6f (HEK T-REx/GCaMP6f/APOL1 G2 K6.3), doxycycline induced
- Sequence (O14791 with tags, fused parts or gaps DEL388-389): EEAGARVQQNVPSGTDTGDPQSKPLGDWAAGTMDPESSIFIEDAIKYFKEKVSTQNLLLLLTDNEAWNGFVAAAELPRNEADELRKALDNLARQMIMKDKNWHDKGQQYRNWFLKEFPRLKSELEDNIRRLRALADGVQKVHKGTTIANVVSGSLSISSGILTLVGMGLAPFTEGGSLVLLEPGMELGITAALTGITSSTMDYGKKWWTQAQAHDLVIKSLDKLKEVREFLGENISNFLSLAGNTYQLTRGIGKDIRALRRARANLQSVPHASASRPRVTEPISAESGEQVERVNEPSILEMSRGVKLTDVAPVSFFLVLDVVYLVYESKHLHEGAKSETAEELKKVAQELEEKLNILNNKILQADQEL
- METHOD DESCRIPTION: APOL1-mediated calcium transport (calcium influx) assay, HEK T-REx/GCaMP6f/APOL1 G2 K6.3 cells, FLIPR TETRA
- Type: cell-based
- COND: prevention of calcium influx; geometric mean of at least 2 assay runs; † = average of a technical replicate from a single assay run
QUANTITY KIND: AC50 (µM)

INSERT INTO results (molecule, target_under_test, quantity_kind, endpoint_unit, measurement) VALUES
  ('O=C1Nc2ccc(Cl)cc2C12CCN(CCOc1cnc(N3CC(O)C3)nc1)CC2 [Compound 301]', 'APOL1 G2 (Homo sapiens, UniProt O14791, DEL388-389)', 'AC50', 'µM', 0.586),
  ('O=C1Nc2ccccc2C12CCN(CCOc1ccc(S(=O)(=O)C(F)F)cc1)CC2 [Compound 44]', 'APOL1 G2 (Homo sapiens, UniProt O14791, DEL388-389)', 'AC50', 'µM', 0.352),
  ('Cc1nc2cc(OCCN3CCC4(CC3)C(=O)Nc3ccc(Cl)cc34)cc(C(F)(F)F)c2n1[C@H]1C[C@@](C)(O)C1 [Compound 442]', 'APOL1 G2 (Homo sapiens, UniProt O14791, DEL388-389)', 'AC50', 'µM', 2.14),
  ('CS(=O)(=O)c1ccc(OCCN2CCC3(CC2)C(=O)Nc2ccc(Cl)cc23)cc1C1COC1 [Compound 223]', 'APOL1 G2 (Homo sapiens, UniProt O14791, DEL388-389)', 'AC50', 'µM', 0.311);

---

- Test system: HEK293 clonal cell line overexpressing APOL1 G1
- METHOD DESCRIPTION: APOL1 G1 HEK293 cell rescue assay (Example B3)
- Assay type: cell-based
- COND: Homo sapiens, HEK293, HEK293 clonal line overexpressing APOL1 G1; geometric mean of at least 2 runs; † = single run; ¥ = concentration at 50% rescue estimated (no sigmoidal curve)
Criterion: EC50 strictly under 100 nM. Met: label 1. Not met: label 0.

INSERT INTO results (chemical_smiles, class_assignment) VALUES
  ('CC1(O)CN(c2ncc(OCCN3CCC4(CC3)C(=O)Nc3ccc(C(F)F)cc34)cn2)C1', 'label 0'),
  ('CN1CCc2cc(OCCN3CCC4(CC3)C(=O)Nc3ccc(Cl)cc34)ccc2S1(=O)=O', 'label 1'),
  ('CS(=O)(=O)c1ccc(OCCN2CCC3(CC2)C(=O)N(CCO)c2ccc(Cl)cc23)cc1', 'label 0'),
  ('Cc1ccc2c(c1)C1(CCN(CCOc3ccc(S(C)(=O)=O)cc3)CC1)C(=O)N2', 'label 0'),
  ('C[C@]1(O)C[C@@H](n2c(=O)cnc3cc(OCCN4CCC5(CC4)C(=O)Nc4ccc(Cl)cc45)cnc32)C1', 'label 0');

---

- System: HEK293 cells overexpressing APOL1 G2
- METHOD DESCRIPTION: APOL1 G2 HEK293 cell rescue assay (reversal of cell death caused by overexpression of APOL1)
- Type: cell-based
- COND: Homo sapiens, HEK293, HEK293 overexpressing APOL1 G2; geometric mean of at least 2 assay runs; † = single assay run
# EC50 per entry
QUANTITY KIND: EC50 (µM)

INSERT INTO measurements (compound, endpoint_unit, measurement) VALUES
  ('CC(COc1ccc2c(c1)CCC(=O)N2C)N1CCC2(CC1)C(=O)Nc1ccc(Cl)cc12 (centres unmarked)', 'µM', 0.148),
  ('CS(=O)(=O)c1ccc(OCCN2CCC3(CC2)C(=O)Nc2ccccc23)cc1', 'µM', 0.527),
  ('CS(=O)(=O)c1ccc(OCCN2CCC3(CC2)C(=O)N(CCO)c2ccc(C#N)cc23)cc1C(F)(F)F', 'µM', 0.168),
  ('C[C@]1(O)C[C@@H](n2c(=O)ccc3cc(OCCN4CCC5(CC4)C(=O)Nc4ccc(C(F)F)cc45)cnc32)C1', 'µM', 0.0256),
  ('O=C1Nc2ccc(Cl)cc2C12CCN(CCOc1cnc3c(N4CC(O)C4)ncnc3c1)CC2', 'µM', 0.08),
  ('N#Cc1ccc2c(c1)C1(CCN(CCOc3ccc4c(c3)CCN3C(=O)CCC43)CC1)C(=O)N2 (single isomer, unassigned) [Compound 125]', 'µM', 0.355),
  ('C[C@]1(O)C[C@@H](n2nnc3cc(OCCN4CCC5(CC4)C(=O)Nc4ccc(C#N)cc45)cc(C(F)(F)F)c32)C1', 'µM', 0.0129),
  ('CS(=O)(=O)c1ccc(OCCN2CCC3(CC2)C(=O)Nc2ccc(Cl)cc23)cc1F', 'µM', 0.0511),
  ('CC(=O)c1ncc(OCCN2CCC3(CC2)C(=O)Nc2ccc(C(F)F)cc23)cc1C(F)(F)F', 'µM', 0.0436),
  ('CC(c1ncc(OCCN2CCC3(CC2)C(=O)Nc2ccc(Cl)cc23)cn1)S(C)(=O)=O (single isomer, unassigned) [Compound 2]', 'µM', 0.134),
  ('CS(=O)(=O)C1(c2ccc(OCCN3CCC4(CC3)C(=O)Nc3ccc(C#N)cc34)cc2C(F)(F)F)COC1', 'µM', 0.0561),
  ('CC1(O)CN(c2ncnc3cc(OCCN4CCC5(CC4)C(=O)Nc4ccc(Cl)cc45)cnc23)C1', 'µM', 0.112),
  ('[2H]C([2H])(Oc1cnc2c(c1)CCC(=O)N2[C@H]1C[C@](O)(C([2H])([2H])[2H])C1)C([2H])([2H])N1CCC2(CC1)C(=O)Nc1ccc(Cl)cc12', 'µM', 0.0178),
  ('[2H]C([2H])([2H])N1C(=O)C2(CCN(CCOc3ccc(S(C)(=O)=NC)c(C(F)(F)F)c3)CC2)c2cc(Cl)ccc21 (centres unmarked)', 'µM', 0.0603);

---

- TARGET UNDER TEST: APOL1 G2 (Homo sapiens, UniProt O14791, DEL388-389)
- Construct: expressed in transfected cells; host or cells: HEK293 T-REx clonal line stably expressing GCaMP6f (HEK T-REx/GCaMP6f/APOL1 G2 K6.3), doxycycline induced
- METHOD DESCRIPTION: APOL1-mediated calcium transport (calcium influx) assay, HEK T-REx/GCaMP6f/APOL1 G2 K6.3 cells, FLIPR TETRA
- Format: cell-based
- COND: prevention of calcium influx; geometric mean of at least 2 assay runs; † = average of a technical replicate from a single assay run
QUANTITY KIND: AC50 (nM)

INSERT INTO assay_data (compound, measurement) VALUES
  ('CC(O)c1ncc(OCCN2CCC3(CC2)C(=O)Nc2ccc(Cl)cc23)cn1 (centres unmarked) [Compound 284]', 756),
  ('CS(=O)(=O)c1ccc(OCCN2CCC3(CC2)C(=O)Nc2ccc(C#N)cc23)cc1Cl [Compound 156]', 468),
  ('CS(=O)(=O)c1ccc(OCCN2CCC3(CC2)C(=O)Nc2ccc(Cl)cc23)cc1C(F)CF (centres unmarked) [Compound 217]', 866),
  ('O=C1Nc2ccc(Cl)cc2C12CCN(CCOc1ccc(S(=O)(=O)C(F)F)cc1)CC2 [Compound 112]', 746),
  ('CC(C)(O)c1ncc(OCCN2CCC3(CC2)C(=O)Nc2ccc(Cl)cc23)cc1C(F)(F)F [Compound 371]', 504),
  ('CS(=O)(=O)C1(c2ncc(OCCN3CCC4(CC3)C(=O)Nc3ccc(Cl)cc34)cn2)COC1 [Compound 276]', 1750),
  ('C[C@]1(O)C[C@@H](n2cc3cc(OCCN4CCC5(CC4)C(=O)Nc4ccc(Cl)cc45)cc(C(F)(F)F)c3n2)C1 [Compound 427]', 708),
  ('CN1Cc2cc(OCCN3CCC4(CC3)C(=O)Nc3ccc(Cl)cc34)ccc2C1=O [Compound 146]', 279);
